Experiment: Compound concentrations in lungs of ova-sensitized mice post IP, PO and IT administration
Format: in vivo
Settings: male, Balb/c, mouse, lung, other: intratracheal (IT), BD model, IT 5 μmol/kg, read-out: Lung, nM (plasma corrected lung concentration)
recorded-metric: concentration at 2.5 h (nM)
Write the number in nM without appending the unit.

# input Requested read-out: concentration at 2.5 h. Entry: CS(=O)(=O)Nc1cccc(CN2CCC[C@H](Nc3ccc4[nH]ncc4c3)C2)c1
# output 123

###

Target: p70S6K human enzyme (Homo sapiens, UniProt P23443, T412E)
Sequence (P23443 whole entry T412E): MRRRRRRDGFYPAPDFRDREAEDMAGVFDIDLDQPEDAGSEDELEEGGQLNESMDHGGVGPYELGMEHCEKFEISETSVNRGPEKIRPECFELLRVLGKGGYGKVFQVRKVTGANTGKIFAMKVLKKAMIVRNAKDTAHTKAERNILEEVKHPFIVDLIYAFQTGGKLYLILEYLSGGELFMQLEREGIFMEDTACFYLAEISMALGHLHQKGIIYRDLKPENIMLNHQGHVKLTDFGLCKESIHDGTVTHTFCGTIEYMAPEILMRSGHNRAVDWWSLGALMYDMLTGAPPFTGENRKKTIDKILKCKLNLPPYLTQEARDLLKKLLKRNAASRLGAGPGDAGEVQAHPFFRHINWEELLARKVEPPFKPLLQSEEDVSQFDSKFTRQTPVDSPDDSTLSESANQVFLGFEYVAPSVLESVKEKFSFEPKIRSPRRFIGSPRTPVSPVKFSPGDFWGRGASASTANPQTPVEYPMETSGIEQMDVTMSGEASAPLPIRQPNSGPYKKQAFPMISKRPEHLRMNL
Assay: p70S6K inhibition assay (IMAP FP)
Assay type: biochemical
Conditions: read-out: p70S6K Ki, Avg
recorded-metric: Ki (nM)
Field: numeric (nM). Do not append units.

# input Lab request: please report Ki under test system p70S6K human enzyme (Homo sapiens, UniProt P23443, T412E) for Cc1ccc(CN2CC[C@@H](Nc3cccc4cnccc34)C2)cc1OCCO [Compound 2.064]
# output 178
